Hey, just so you know, these numbers are from ChEMBL document CHEMBL3608236.

Recorded IC50, one value per entry.
- protocolNotes: Antioxidant activity assessed as hydrogen peroxide scavenging activity
- Format: physicochemical
A number alone suffices; assume µg/mL.

Some entries whose results are on file:
molecularstring=O=[N+]([O-])c1cccc(/C=N/n2c(S)nnc2-c2ccc(O)cc2)c1 endpointunit=µg/mL measurednumber=38
molecularstring=Oc1ccc(-c2nnc(S)n2/N=C/c2ccccc2Cl)cc1 endpointunit=µg/mL measurednumber=60
molecularstring=O=[N+]([O-])c1ccccc1/C=N/n1c(S)nnc1-c1ccc(O)cc1 endpointunit=µg/mL measurednumber=32
molecularstring=Oc1ccc(-c2nnc(S)n2/N=C/c2cccc(O)c2)cc1 endpointunit=µg/mL measurednumber=20

Now for a further compound.
**Query** Output IC50 of Oc1ccc(-c2nnc(S)n2/N=C/c2ccccc2)cc1
**Result** 24
